Test: Water miscibility of solvents
Format: physicochemical
Design: key: -: Where phase separation was visible; +: otherwise
Conditions: 0.5 ml water + 0.5 ml solvent
Method: Various solvents were tested for their utility with regard to (1) water miscibility, (2) guaiac solubility and (3) color development. Water miscibility was evaluated by admixing 0.5 ml of water with 0.5 ml each solvent, and noting any phase separation. Where phase separation was visible, a "-" appears in Table 2; otherwise, a "+" appears.
observationType: WATER MISCIBILITY

Here's what some known entries look like.
query: Any idea what WATER MISCIBILITY was measured for OCCO ?
result: +

query: Any idea what WATER MISCIBILITY was measured for CC(C)c1ccccc1 ?
result: -

query: Any idea what WATER MISCIBILITY was measured for CCCCCCCC ?
result: -

query: Any idea what WATER MISCIBILITY was measured for CC(C)c1ccc(CO)cc1 ?
result: -

---
query: Any idea what WATER MISCIBILITY was measured for CC(C)O ?
result: +

query: Any idea what WATER MISCIBILITY was measured for CC(Cl)(Cl)Cl ?
result: -

query: Any idea what WATER MISCIBILITY was measured for CCCCCCO ?
result: -

query: Any idea what WATER MISCIBILITY was measured for ClCCl ?
result: -

query: Any idea what WATER MISCIBILITY was measured for CCC(C)=O ?
result: +

query: Any idea what WATER MISCIBILITY was measured for Cc1ccccc1 ?
result: -

query: Any idea what WATER MISCIBILITY was measured for CCOC(C)=O [Ethyl Acetate] ?
result: -

query: Any idea what WATER MISCIBILITY was measured for CCCCCCCCOC(C)=O [Octyl Acetate] ?
result: -

query: Any idea what WATER MISCIBILITY was measured for CCCCCCCCO ?
result: -

query: Any idea what WATER MISCIBILITY was measured for CCCCCO ?
result: -

====

Experiment: Water miscibility of solvents
Assay type: physicochemical
Design: key: -: Where phase separation was visible; +: otherwise
Settings: 0.5 ml water + 0.5 ml solvent
observationType: WATER MISCIBILITY

Here's what some known entries look like.
query: Any idea what WATER MISCIBILITY was measured for OCc1ccccc1 ?
result: -

query: Any idea what WATER MISCIBILITY was measured for CC(C)=O ?
result: +

query: Any idea what WATER MISCIBILITY was measured for CCO ?
result: +

query: Any idea what WATER MISCIBILITY was measured for CCCCCCCO ?
result: -

We next turn to a different compound, shown below.
query: Any idea what WATER MISCIBILITY was measured for COC(=O)CC(C)=O [Methyl-Acetoacetate] ?
result: +

====

Assay: Guaiac solubility in solvents / reagent solubility in water
observationType: GUAIAC SOLUBILITY

Here's what some known entries look like.
query: Any idea what GUAIAC SOLUBILITY was measured for OCc1ccccc1 ?
result: +++

query: Any idea what GUAIAC SOLUBILITY was measured for CCCCCCCCOC(C)=O [Octyl Acetate] ?
result: ++

query: Any idea what GUAIAC SOLUBILITY was measured for CCCCCO ?
result: +++

query: Any idea what GUAIAC SOLUBILITY was measured for CCO ?
result: +++

query: Any idea what GUAIAC SOLUBILITY was measured for CC(=O)CC(C)(C)O [4-hydroxy, 4 methyl-pentanone] ?
result: +++

---
query: Any idea what GUAIAC SOLUBILITY was measured for CCCCCCCCO ?
result: +++
